- experimental_system: human muscarinic M1 receptor (Homo sapiens, UniProt P11229)
- Sequence (P11229 whole entry): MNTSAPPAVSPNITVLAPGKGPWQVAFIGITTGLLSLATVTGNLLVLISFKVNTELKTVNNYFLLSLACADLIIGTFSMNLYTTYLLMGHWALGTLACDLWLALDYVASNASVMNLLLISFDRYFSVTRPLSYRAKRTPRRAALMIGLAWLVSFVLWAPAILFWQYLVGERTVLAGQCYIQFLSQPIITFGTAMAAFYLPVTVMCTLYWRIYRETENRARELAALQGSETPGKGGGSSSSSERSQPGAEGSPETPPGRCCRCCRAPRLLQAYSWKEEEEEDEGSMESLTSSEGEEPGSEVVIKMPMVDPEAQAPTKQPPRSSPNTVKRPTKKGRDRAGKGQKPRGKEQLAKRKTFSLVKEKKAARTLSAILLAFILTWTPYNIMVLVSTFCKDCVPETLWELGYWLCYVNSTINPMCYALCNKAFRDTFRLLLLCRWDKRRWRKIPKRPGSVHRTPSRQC
- test_description: Alphascreen Surefire phospho-ERK1/2 functional assay, M1
- Format: cell-based
- experimental_context: CHO cells stably expressing human M1; agonist 5 min, 37° C.
- Protocol: ERK1/2 phosphorylation is a downstream consequence of both Gq/11 and Gi/o protein coupled receptor activation, making it highly suitable for the assessment of M1, M3 (Gq/11 coupled) and M2, M4 receptors (Gi/o coupled), rather than using different assay formats for different receptor subtypes. CHO cells stably expressing the human muscarinic M1, M2, M3 or M4 receptor were plated (25K/well) onto 96-well tissue culture plates in MEM-alpha+10% dialysed FBS. […]
measured_parameter: pEC50 M1
Please respond with just the number, no unit label.

Solved entries (count: 5):
{"columns": ["molecule", "experimental_system", "measured_parameter", "numeric_result"],
 "data": [
  ["CCOC(=O)N1C2COCC1CC(N1CC3C(C1)C3C(=O)N(CC)C1CC1)C2 (single isomer, unassigned; isomer 2) [10-9 Isomer 2]", "human muscarinic M1 receptor (Homo sapiens, UniProt P11229)", "pEC50 M1", 6.57],
  ["CCOC(=O)N1C2CCCC1CC(N1CC3C(C1)C3C(=O)N(CC)CC)C2 (single isomer, unassigned; isomer 1) [9-2 Isomer 1]", "human muscarinic M1 receptor (Homo sapiens, UniProt P11229)", "pEC50 M1", 6.56],
  ["COC(=O)N1C2COCC1CC(N1CC3C(C1)C3C(=O)N1CCCCC1)C2 (single isomer, unassigned; isomer 2) [10-12 Isomer 2]", "human muscarinic M1 receptor (Homo sapiens, UniProt P11229)", "pEC50 M1", 5.99],
  ["CCOC(=O)N1C2COCC1CC(N1CC3C(C1)C3C(=O)N(CC)CC)C2 (single isomer, unassigned; isomer 2) [10-2 Isomer 2]", "human muscarinic M1 receptor (Homo sapiens, UniProt P11229)", "pEC50 M1", 7.15],
  ["CCN(CC)C(=O)C1C2CN(C3CC4CCCC(C3)N4C(=O)OC)CC21 (single isomer, unassigned; isomer 1) [9-3 Isomer 1]", "human muscarinic M1 receptor (Homo sapiens, UniProt P11229)", "pEC50 M1", 6.40]
]}

The molecule listed as CCOC(=O)N1C2COCC1CC(N1CC3C(C1)C3C(=O)N(C)C1CC1)C2 (single isomer, unassigned; isomer 1) [10-8 Isomer 1] has a reported pEC50 M1 of 5.99

The molecule listed as CCN(C(=O)C1C2CN(C3CC4COCC(C3)N4C(=O)OC)CC21)C(C)C (single isomer, unassigned; isomer 1) [10-7 Isomer 1] has a reported pEC50 M1 of 7.42
